System: K-562 leukemia
Test: NCI-60 one-dose screen, 48 h (100 = growth as untreated, 0 = no growth, -100 = all killed)
Conditions: 10 µM unless noted
About 83,000 compounds went through this panel and 20% of them were active in at least one assay; those are over-represented in the sample as a whole.
Item-by-item account of growth
Lab book: enter the figure in %, no units written.

As a guide, the following entries are already answered.
| compound | tested_system | observed_measurement |
| --- | --- | --- |
| CC(=O)Nc1ccc(Cc2ccc(NC(C)=O)cc2)cc1 | K-562 leukemia | 112 |
| CC(C)CCC1(CCO)C(=O)NC(=S)NC1=O | K-562 leukemia | 120 |
| CCOP(=O)(OCC)Oc1ccc(Sc2ccc(OP(=O)(OCC)OCC)cc2)cc1 | K-562 leukemia | 102 |
| Cc1ccccc1O | K-562 leukemia | 119 |
| CC(C)C1c2ccc(O)cc2Oc2nc(N)c(C#N)c(N)c21 (stereo not drawn) | K-562 leukemia | 92.5 |
| CC(C)(C)NCC(O)c1ccccc1Cl (stereo not drawn) | K-562 leukemia | 17.5 |

input: API: value(readout= growth, system= K-562 leukemia, query= CNC(=O)Oc1cccc(N(C)C)c1 )
output: 102

input: API: value(readout= growth, system= K-562 leukemia, query= O=C1NC(=O)C(=Cc2cn(Cc3ccccc3)c3ccccc23)C(=O)N1 )
output: 63.5

input: API: value(readout= growth, system= K-562 leukemia, query= CC[C@H](C)[C@H](NC(=O)Nc1ccccc1)C(=O)N(C)[C@H](C[C@@H](OC(C)=O)c1nc(C(=O)N[C@@H](Cc2ccccc2)C[C@H](C)C(=O)OC)cs1)C(C)C )
output: 15.7

input: API: value(readout= growth, system= K-562 leukemia, query= COc1c(O)c2c3c(c1OC)-c1ccccc1CC3N(C)CC2 (stereo not drawn) )
output: 92.3

###

Test system: HL-60(TB) leukemia
Test: NCI-60 one-dose screen, 48 h
Conditions: 10 µM unless noted
About 83,000 compounds went through this panel and 20% of them were active in at least one assay; those are over-represented in the sample as a whole. Activity calls are given as the source filed them. The calls were made as follows: active = growth percent below 10; inactive = the rest.
Tick one outcome: active, inactive

These recorded examples may help you get a feel for the data.
| compound | assigned_label |
| --- | --- |
| CCCCNC(=O)c1ccc2c(c1)nc(-c1ccccc1)n2C1CCCCC1 | inactive |
| NC(=Nc1ccccc1)SCCCCSC(N)=Nc1ccccc1 | inactive |
| Cc1oc2c(c1C(=O)N1CC[C@@H](N)C1)C(=O)c1c(c(O)c3ccccc3c1O)C2=O | active |

input: Status in this test for Cc1sc2nc3c4ccccc4c(NCCCN(C)C)nn3c(=O)c2c1C ?
output: active

input: Status in this test for O=C(Nc1ccc(C(=O)/C=C/c2ccc(N3CCOCC3)cc2)cc1)Nc1ccc([N+](=O)[O-])cc1 ?
output: inactive

input: Status in this test for CN(C)CSc1nc2ccccc2s1 ?
output: inactive

###

Test system: HL-60(TB) leukemia
Assay: NCI-60 one-dose screen, 48 h
Conditions: 10 µM unless noted
Compounds without any hit were thinned out: in the full panel of roughly 83,000, 20% have a hit. Calls of active or inactive are those of the source. The calls were made as follows: active = growth percent below 10; inactive = the rest.
Tick one outcome: active, inactive

These recorded examples may help you get a feel for the data.
| molecule | assigned_label |
| --- | --- |
| COc1ccc2nc(-c3ccc(Cl)cc3)cc(-c3nnc(SCC(=O)Nc4ccc(C(C)=O)cc4)n3-c3ccccc3)c2c1 | inactive |
| CCC(=O)c1c(C)[nH]c(C)c1C | inactive |
| COC(=O)[C@H](Cc1cn(C)cn1)NC(=O)[C@H](C)NC(=O)Nc1cc(C(F)(F)F)cc(C(F)(F)F)c1 | active |
| COc1ccc(/C=N/NC(=O)c2ccc(S(C)(=O)=O)cc2)cc1OC | inactive |
| Cc1onc2c(-c3ccccc3)n[nH]c(=O)c12 | inactive |

input: Status in this test for C/C=C(\C)C(C(=O)NC1CCCCC1)N(C(=O)C1CCc2cc(F)ccc2O1)c1ccc([N+](=O)[O-])cc1 (stereo not drawn) ?
output: inactive

input: Status in this test for Cc1ccc(C(CC(=O)O)c2c(C)[nH][nH]c2=O)cc1 (stereo not drawn) ?
output: inactive

input: Status in this test for COc1ccc2c(c1)oc1c(C)c3c(c(C)c12)C(=O)N(Nc1ccccc1)C3=O ?
output: inactive
